- Test system: lymphocytes
- assayOverview: peptidase activity in leukemia and non-leukemia patients, lymphocytes (Table 6C)
- Type: cell-based, human
- Set-up: unit not given here
- studyConditions: P71 ac. pyelonephritis
- From the text: Artificial intelligence was used to analyze data of cellular enzyme functions, and determine normal and disease states. Peptidases were used to distinguish leukemia from non-leukemia (output pattern). For input patterns lymphocyte and granulocyte cell types were used with aminopeptidases, cathepsins and dipeptidylpeptidase enzyme activities. […]

{"compound": "C[C@@H](O)[C@H](N)C(=O)N1CCC[C@H]1C(=O)Nc1ccc2c(c1)Oc1cc(NC(=O)[C@@H]3CCCN3C(=O)[C@@H](N)[C@@H](C)O)ccc1C21OC(=O)c2ccccc21 [TP, (H-L-Thr--Pro)2 Rho 110 .2TFA]", "enzyme activity, Lymphs": 1.86}
{"compound": "NCC(=O)N1CCC[C@H]1C(=O)Nc1ccc2c(c1)Oc1cc(NC(=O)[C@@H]3CCCN3C(=O)CN)ccc1C21OC(=O)c2ccccc21 [GP, (H-Gly--Pro)2 Rho .2TFA]", "enzyme activity, Lymphs": 3.55}
{"compound": "O=C1OC2(c3ccc(NC(=O)[C@@H]4CCCN4)cc3Oc3cc(NC(=O)[C@@H]4CCCN4)ccc32)c2ccccc21 [PRO, (H-L-Pro)2 --Rho 110 .2TFA]", "enzyme activity, Lymphs": 0.52}
{"compound": "NCCCC[C@H](N)C(=O)Nc1ccc2c(c1)Oc1cc(NC(=O)[C@@H](N)CCCCN)ccc1C21OC(=O)c2ccccc21 [LYS, (H-L-Lys)2 Rho 110 .4TFA]", "enzyme activity, Lymphs": 0.91}
{"compound": "C[C@H](N)C(=O)Nc1ccc2c(c1)Oc1cc(NC(=O)[C@H](C)N)ccc1C21OC(=O)c2ccccc21", "enzyme activity, Lymphs": 109.26}

Attribution: patent US5698411A
